test system: SH-SY5Y; assay: Cytotoxicity against human SH-SY5Y cells assessed as cell viability up to 3 uM after 24 hrs by MTT assay; format: cell-based

query-smiles: O=c1c2ccccc2ncn1-c1ccccc1CO
assay-system: SH-SY5Y
Activity: Non-toxic
//
query-smiles: COc1ccc(-n2cnc3ccc(OC)cc3c2=O)c(COC=O)c1
assay-system: SH-SY5Y
Activity: Non-toxic
//
query-smiles: COc1ccc(-n2cnc3ccc(OC)cc3c2=O)c(CO)c1
assay-system: SH-SY5Y
Activity: Non-toxic
//
query-smiles: COc1ccc(-n2cnc3ccc(OC)cc3c2=O)c(CF)c1
assay-system: SH-SY5Y
Activity: Non-toxic

Each recorded value in this set is attributed to ChEMBL document CHEMBL3763136.
